# assay.system: HLA A*3201 (Homo sapiens, UniProt P04439, A270S/D101S/D185E/E176V/E277Q/F133L/G103R/G107R/G231S/H175R/I121M/I218V/I322F/K168Q/L105A/L300P/L318F/M331R/P208A/P217A/Q94H/R106L/R138Q/S129P/T104I/T323A/T345S/V100E/V321M/V358M)
# assay.name: biochemical
Where a SMILES comes first, the peptide text is derived from it.
quantity.kind: IC50
Write the numeric value and append its unit.

>>> measured_result("CC[C@H](C)[C@H](N)C(=O)N[C@@H](CC(C)C)C(=O)N1CCC[C@H]1C(=O)N[C@H](C(=O)N[C@H](C(=O)N[C@@H](Cc1ccccc1)C(=O)N[C@@H](CC(C)C)C(=O)N[C@@H](CO)C(=O)N[C@H](C(=O)O)[C@@H](C)CC)[C@@H](C)CC)C(C)C [3102.0375] (H-ILPVIFLSI-OH)")
"4.5 nM"
>>> measured_result("CC[C@H](C)[C@H](NC(=O)[C@H](CCCCN)NC(=O)[C@H](Cc1ccccc1)NC(=O)[C@H](CCSC)NC(=O)[C@@H](N)[C@@H](C)O)C(=O)N[C@H](C(=O)N[C@@H](Cc1ccc(O)cc1)C(=O)N[C@@H](CO)C(=O)N[C@@H](CC(C)C)C(=O)O)C(C)C [3102.0291] (H-TMFKIVYSL-OH)")
"0.92 nM"
>>> measured_result("CC[C@H](C)[C@H](NC(=O)[C@H](CO)NC(=O)[C@H](CS)NC(=O)[C@H](CCSC)NC(=O)[C@@H](N)C(C)C)C(=O)N[C@@H](CO)C(=O)N[C@@H](CC(C)C)C(=O)N[C@H](C(=O)N[C@@H](Cc1ccc(O)cc1)C(=O)O)[C@@H](C)O [3102.0394] (H-VMCSISLTY-OH)")
"11 nM"
>>> measured_result("CC[C@H](C)[C@H](NC(=O)[C@@H](NC(=O)[C@@H]1CCCN1C(=O)[C@H](CC(C)C)NC(=O)[C@H](Cc1ccccc1)NC(=O)[C@H](CO)NC(=O)[C@H](CCSC)NC(=O)[C@@H](N)CCCCN)[C@@H](C)CC)C(=O)N[C@@H](Cc1ccccc1)C(=O)O [3102.1291] (H-KMSFLPIIF-OH)")
"6.7 nM"

Input CSCC[C@H](NC(=O)[C@@H](N)Cc1c[nH]cn1)C(=O)N[C@@H](CC(C)C)C(=O)N[C@@H](CCC(=O)O)C(=O)N[C@@H](Cc1ccccc1)C(=O)N[C@@H](CC(C)C)C(=O)N[C@@H](Cc1ccc(O)cc1)C(=O)N[C@@H](CO)C(=O)N[C@@H](Cc1ccccc1)C(=O)O [3102.0499] (H-HMLEFLYSF-OH) . Output IC50: 0.3 nM

Input CC[C@H](C)[C@H](NC(=O)[C@H](CCC(=O)O)NC(=O)[C@H](CS)NC(=O)[C@@H](NC(=O)[C@@H](N)CO)[C@@H](C)CC)C(=O)N[C@H](C(=O)N[C@@H](Cc1ccc(O)cc1)C(=O)N[C@@H](CO)C(=O)N[C@@H](Cc1ccccc1)C(=O)O)C(C)C [3102.0440] (H-SICEIVYSF-OH) . Output IC50: 0.35 nM

Input CSCC[C@H](NC(=O)[C@H](CCCCN)NC(=O)[C@H](CC(N)=O)NC(=O)[C@H](CC(C)C)NC(=O)[C@@H](N)CCCCN)C(=O)N[C@H](C(=O)N[C@H](C(=O)N[C@@H](CCC(=O)O)C(=O)N[C@@H](CC(C)C)C(=O)O)C(C)C)[C@@H](C)O [3102.0316] (H-KLNKMTVEL-OH) . Output IC50: 1.7 nM

Input CC(C)C[C@H](NC(=O)[C@@H](N)CCCCN)C(=O)N[C@@H](CC(N)=O)C(=O)N[C@@H](CC(N)=O)C(=O)N[C@H](C(=O)N[C@@H](Cc1ccccc1)C(=O)N[C@@H](Cc1ccc(O)cc1)C(=O)N[C@H](C(=O)N[C@@H](Cc1ccccc1)C(=O)O)C(C)C)C(C)C [3102.1169] (H-KLNNVFYVF-OH) . Output IC50: 0.52 nM

Input CC[C@H](C)[C@H](NC(=O)CNC(=O)[C@@H](NC(=O)[C@H](C)NC(=O)[C@@H](NC(=O)[C@H](CCCNC(=N)N)NC(=O)[C@H](CCSC)NC(=O)[C@H](CC(C)C)NC(=O)[C@@H](N)CCSC)C(C)C)C(C)C)C(=O)O [3102.0437] (H-MLMRVAVGI-OH) . Output IC50: 0.69 nM
